Test system: Staphylococcus aureus
Experiment: Antibacterial activity against norA-deficient Staphylococcus aureus K1902 assessed as growth inhibition by microdilution method
Type: functional
MIC reference
Please state the figure in µg/mL; there is no need to write the unit.

>>> numeric_result("CCCOc1ccc(-c2cc(OCCN(CC)CC)c3ccccc3n2)cc1")
50

-- ask Tell me the measured MIC of CCCOc1ccc(-c2cc(OCCN3CCNCC3)c3ccccc3n2)cc1 , please.
-- reply 25

-- ask Check O=C(O)c1cn(C2CC2)c2cc(N3CCNCC3)c(F)cc2c1=O too.
-- reply 0.63

-- ask Check CCCOc1ccc(-c2cc(OCCN3CCCCCC3)c3ccccc3n2)cc1 too.
-- reply 50

-- ask Check CCCOc1ccc(-c2cc(OCCCN(C)C)c3ccccc3n2)cc1.Cl too.
-- reply 25

-- ask Check CCCOc1ccc(-c2cc(OCCN(C(C)C)C(C)C)c3ccccc3n2)cc1 too.
-- reply 100

Reference source: ChEMBL document CHEMBL2384986
